test_summary: inhibitors of HIV-1 Env-driven cell-cell fusion, primary screen, HeLa-JRFL effector, CEM21 target cells, luciferase (AID 651610);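 also: 0% = plate neutral controls and 100% = maraviroc near 300 nM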
experimental_conditions: at 16.7 µM unless noted
About 3,900 (1.1%) of roughly 360,000 compounds were called active.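 The calls were made as follows: active = mean replicate inhibition score of at least 50 and every replicate individually at or above 50; inconclusive = only one of the two criteria met; inactive = mean below 50 and not all replicates reaching 50.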 The entries come from a sample that favours actives as a whole.
// classify into true (1) for active, false (0) for inactive

                                   compound  qualitative_label
0  Cn1c(=O)c2c(nc(NCCc3ccccc3)n2Cc2ccccc2)n(C)c1=O           true (1)
1  CO[C@@H]1CN(C)C(=O)c2cc(NS(=O)(=O)c3ccc(C)cc3)ccc2OC[C@H](C)N(C(=O)NC(C)C)C[C@@H]1C           true (1)
2  CN1CCN(C(=O)C[C@H]2C[C@@H]3c4cc(NC(=O)NC5CCCC5)ccc4O[C@@H]3[C@@H](CO)O2)CC1          false (0)

// switching to the query compound
Kindly provide the recorded test outcome for the following compound: Cn1c(=O)c2c(nc(NCCNC(=O)c3ccco3)n2Cc2ccccc2F)n(C)c1=O
false (0)
